- MEASUREMENT_TARGET: hAT1R (Homo sapiens, UniProt P30556)
- Sequence (P30556 whole entry): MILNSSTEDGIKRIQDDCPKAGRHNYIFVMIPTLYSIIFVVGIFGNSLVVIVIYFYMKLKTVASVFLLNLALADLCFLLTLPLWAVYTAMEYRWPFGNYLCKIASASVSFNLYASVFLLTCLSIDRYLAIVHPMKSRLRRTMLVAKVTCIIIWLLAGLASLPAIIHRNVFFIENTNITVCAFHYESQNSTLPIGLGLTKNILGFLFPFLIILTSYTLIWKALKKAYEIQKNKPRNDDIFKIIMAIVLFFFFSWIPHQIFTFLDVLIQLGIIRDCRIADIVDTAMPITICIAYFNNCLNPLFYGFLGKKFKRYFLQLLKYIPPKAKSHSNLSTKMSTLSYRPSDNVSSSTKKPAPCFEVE
- ASSAY_INFO: BRET β-arrestin2 biosensor assay, higher receptor expression (hAT1R 5 ng/well), HEK293 cells
- Type: cell-based
- EXPERIMENTAL_PARAMETERS: High AT1R Expression
Task for the reader: assign each of the following compounds its reported log10 of EC50.
Heads up: the numbers are on a log10 scale; they represent EC50 in nM.

Task item: I would be grateful if you could share the reported log10 of EC50 for CCCCc1ncc(C(=O)NCc2cnccn2)n1Cc1ccc(-c2cc(-c3ccccc3)ccc2-c2nn[nH]n2)cc1 [Example 359] .
Reply: 1.18

Task item: I would be grateful if you could share the reported log10 of EC50 for CCCCOC(=O)NS(=O)(=O)c1sc(-c2ccccc2)cc1-c1ccc(Cn2c(CC)nc3c(C)cc(C)nc32)cn1 [Example 50] .
Reply: 1.23

Task item: I would be grateful if you could share the reported log10 of EC50 for CCc1nc2c(C)cc(C)nc2n1Cc1ccc(-c2cc(-c3cn(CCO)nn3)ccc2-c2nnn[nH]2)cc1 [Example 235] .
Reply: 1.47

Task item: I would be grateful if you could share the reported log10 of EC50 for CCc1nc2c(C)cc(C)nc2n1Cc1ccc(-c2cc(-c3ccc(OC(F)(F)F)cc3)ccc2-c2nn[nH]n2)cc1 [Example 6] .
Reply: 1.71

Task item: I would be grateful if you could share the reported log10 of EC50 for CCCCC1=NC2(CCCC2)C(=O)N1Cc1ccc(-c2cc(-c3cccc(C)n3)ccc2-c2nn[nH]n2)cc1 [Example 138] .
Reply: 1.76

Task item: I would be grateful if you could share the reported log10 of EC50 for CCc1nc2c(C)cc(C)nc2n1Cc1ccc(-c2cc(N3CCC(C)CC3)ccc2-c2nn[nH]n2)cc1 [Example 97] .
Reply: 1.49

Task item: I would be grateful if you could share the reported log10 of EC50 for CCCCc1nc(Cl)c(C(=O)O)n1Cc1ccc(-c2cc(-c3ccccc3)ccc2-c2nn[nH]n2)cc1 [Example 384] .
Reply: 0.84

Task item: I would be grateful if you could share the reported log10 of EC50 for CCc1nc2c(C)cc(C)nc2n1Cc1ccc(-c2cc(-n3cc(CCO)nn3)ccc2-c2nnn[nH]2)cc1 [Example 226] .
Reply: 2.54

Task item: I would be grateful if you could share the reported log10 of EC50 for CCCCc1nc(Cl)c(C(=O)O)n1Cc1ccc(-c2cc(-c3cncc(OC)c3)ccc2-c2nn[nH]n2)cc1 [Example 385] .
Reply: 1.76

Task item: I would be grateful if you could share the reported log10 of EC50 for CCOc1nc2cccc(C(=O)O)c2n1Cc1ccc(-c2cc(-c3ccc(C(=O)N(C)C)cc3)ccc2-c2noc(=O)[nH]2)cc1 [Example 321] .
Reply: 2.03

Task item: I would be grateful if you could share the reported log10 of EC50 for CCCCC1=NC2(CCCC2)C(=O)N1Cc1ccc(-c2cc(-c3ccc(OC(F)F)cn3)ccc2-c2nn[nH]n2)cc1 [Example 136] .
Reply: 1.00

Task item: I would be grateful if you could share the reported log10 of EC50 for CCCCC(=O)N(Cc1ccc(-c2cc(-c3cc(F)cc(F)c3)ccc2-c2nn[nH]n2)cc1)C1(C(=O)O)CCCCC1 [Example 289] .
Reply: 1.11

Task item: I would be grateful if you could share the reported log10 of EC50 for CCCCOC(=O)NS(=O)(=O)c1sc(-c2ccccc2C)cc1-c1ccc(Cn2c(CC)nc3c(C)cc(C)nc32)cc1 [Example 40] .
Reply: 1.15

Task item: I would be grateful if you could share the reported log10 of EC50 for CCCCC(=O)N(Cc1ccc(-c2cc(Oc3cccc(OC(F)(F)F)c3)ccc2-c2nn[nH]n2)cc1)C1(C(=O)O)CCCCC1 [Example 287] .
Reply: 1.73
